Target: Peroxisomal N(1)-acetyl-spermine/spermidine oxidase (Homo sapiens)
Test: Activity of APAO in human DU145 cells assessed per ug DNA at 100 uM after 48 hrs in presence of serum amine oxidase inhibitor aminoguanidine (RVb = 699 +/- 21 pmol/h per ug DNA)
Assay type: cell-based
Conditions: DU-145
Readout Kind: Activity
Your answer should be a number followed by the unit of measure.

Worked set:
CC(CN)CNCCCCN (centres undefined): 719 pmol/h
C[C@H](N)CCNCCCCN: 779 pmol/h
CC(CCN)NCCCCN (centres undefined): 693 pmol/h

Field: next molecule
(Q) Give Activity (Peroxisomal N(1)-acetyl-spermine/spermidine oxidase (Homo sapiens)) of the following molecule: CC(N)CCCNCCCN (centres undefined)
(A) 770 pmol/h

====

Target: Diamine acetyltransferase 1 (Homo sapiens)
Assay: Activity of SSAT in human DU145 cells assessed per ug DNA at 100 uM after 48 hrs in presence of serum amine oxidase inhibitor aminoguanidine (RVb = 58 pmol/h per ug DNA)
Assay type: cell-based
Settings: DU-145
Readout Kind: Activity (pmol/h)
// units = pmol/h; emit number, no label

The cases that follow already have their Activity on record.
C[C@H](N)CCNCCCCN: 61
CC(CCN)NCCCCN (centres undefined): 59
CC(N)CCCNCCCN (centres undefined): 62

Alright, here's another compound for you.
(Q) Request body: readout Activity, system Diamine acetyltransferase 1 (Homo sapiens), query CC(CN)CNCCCCN (centres undefined) . Return the value.
(A) 59

====

In this section we review reported Activity values for a set of compounds.
Biological target: UniProtKB Q9NWM0
Sequence (Q9NWM0 whole entry): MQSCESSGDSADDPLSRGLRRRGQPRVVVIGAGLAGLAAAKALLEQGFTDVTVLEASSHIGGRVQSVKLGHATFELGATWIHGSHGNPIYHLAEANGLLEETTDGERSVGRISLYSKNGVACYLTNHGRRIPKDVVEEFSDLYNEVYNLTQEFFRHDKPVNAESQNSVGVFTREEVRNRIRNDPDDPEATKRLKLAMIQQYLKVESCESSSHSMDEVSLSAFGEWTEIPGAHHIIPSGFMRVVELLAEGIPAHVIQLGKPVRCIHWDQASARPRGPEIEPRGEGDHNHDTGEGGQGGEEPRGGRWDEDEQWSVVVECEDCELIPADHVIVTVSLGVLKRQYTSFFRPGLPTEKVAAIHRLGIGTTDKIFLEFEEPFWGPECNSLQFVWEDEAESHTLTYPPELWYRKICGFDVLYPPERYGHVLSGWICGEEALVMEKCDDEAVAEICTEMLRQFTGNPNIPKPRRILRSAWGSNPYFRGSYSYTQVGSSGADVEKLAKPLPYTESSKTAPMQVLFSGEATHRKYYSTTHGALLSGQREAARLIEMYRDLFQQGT
Assay: Activity of spermine oxidase in human DU145 cells assessed per ug DNA at 100 uM after 48 hrs in presence of serum amine oxidase inhibitor aminoguanidine (RVb = 680 +/- 29 pmol/h per ug DNA)
Format: cell-based
Conditions: DU-145
Please respond with the number in pmol/h and leave the unit unwritten.

(Q) For the compound shown here, CC(N)CCCNCCCN (centres undefined) , give the reported Activity.
(A) 738

(Q) For the compound shown here, C[C@H](N)CCNCCCCN , give the reported Activity.
(A) 695

(Q) I'd like to know its Activity. The compound in question is CC(CCN)NCCCCN (centres undefined)
(A) 474

(Q) Consider the compound shown here: CC(CN)CNCCCCN (centres undefined) What is its recorded Activity?
(A) 655

====

Molecular target: S-adenosylmethionine decarboxylase proenzyme (Homo sapiens) (UniProt P17707)
Sequence (P17707 1-67 limits assumed): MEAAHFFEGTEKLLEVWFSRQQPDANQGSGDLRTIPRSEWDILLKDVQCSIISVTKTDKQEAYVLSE
Sequence (P17707 68-334 limits assumed): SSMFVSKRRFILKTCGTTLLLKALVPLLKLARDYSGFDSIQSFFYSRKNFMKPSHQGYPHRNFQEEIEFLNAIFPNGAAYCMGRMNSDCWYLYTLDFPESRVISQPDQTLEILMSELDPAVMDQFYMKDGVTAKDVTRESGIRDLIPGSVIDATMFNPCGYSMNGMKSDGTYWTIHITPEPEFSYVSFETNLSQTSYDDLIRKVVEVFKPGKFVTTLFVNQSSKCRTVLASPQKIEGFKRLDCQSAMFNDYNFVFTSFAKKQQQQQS
Experiment: Activity of S-adenosyl-L-methionine decarboxylase in human DU145 cells assessed per ug DNA at 100 uM after 72 hrs in presence of serum amine oxidase inhibitor aminoguanidine (RVb = 72 +/- 6 pmol/h per ug DNA)
Assay type: cell-based
Settings: DU-145
Readout Kind: Activity (pmol/h)
Express your answer in pmol/h, writing the number without its unit.

C[C@H](N)CCNCCCCN: 75
CC(CN)CNCCCCN (centres undefined): 79
CC(CCN)NCCCCN (centres undefined): 58

Let's switch to this molecule now.
(Q) Any idea what Activity was measured for CC(N)CCCNCCCN (centres undefined) ?
(A) 63

====

Below: a set of entries, each annotated with reported Activity.
Molecular target: Diamine acetyltransferase 1 (Homo sapiens)
Test: Activity of SSAT in human DU145 cells assessed per ug DNA at 100 uM after 72 hrs in presence of serum amine oxidase inhibitor aminoguanidine (RVb = 62 +/- 4 pmol/h per ug DNA)
Type: cell-based
Details: DU-145
A bare number is not enough; add the unit after it.

C[C@H](N)CCNCCCCN: 66 pmol/h
CC(CCN)NCCCCN (centres undefined): 69 pmol/h
CC(CN)CNCCCCN (centres undefined): 61 pmol/h

From here, focus on the item given below.
(Q) Can you share its Activity? I mean this molecule: CC(N)CCCNCCCN (centres undefined)
(A) 61 pmol/h
